Tested on: Escherichia coli NIHJ
Experiment: minimal inhibitory concentration, agar dilution method
Format: cell-based
experimental endpoint: MIC (µg/mL)

[[record]]
molecule = "CCOC(=O)Oc1ccc([C@@H](NC(=O)c2cnc3cccnc3c2S)C(=O)N[C@@H]2C(=O)N3[C@@H]2SC(C)(C)[C@@H]3C(=O)O)cc1"
experimental_endpoint = "MIC"
units = "µg/mL"
test_result = 1.56

[[record]]
molecule = "CC1(C)S[C@@H]2[C@H](NC(=O)C(NC(=O)c3cnc4cccnc4c3O)c3cccc(O)c3)C(=O)N2[C@H]1C(=O)O (some centres unmarked)"
experimental_endpoint = "MIC"
units = "µg/mL"
test_result = 3.13

[[record]]
molecule = "Cc1nc(C)c2c(O)c(C(=O)N[C@@H](C(=O)N[C@@H]3C(=O)N4[C@@H]3SC(C)(C)[C@@H]4C(=O)O)c3ccc(O)cc3)cnc2n1"
experimental_endpoint = "MIC"
units = "µg/mL"
test_result = 3.13

[[record]]
molecule = "Cc1ccc2ncc(C(=O)N[C@@H](C(=O)N[C@@H]3C(=O)N4[C@@H]3SC(C)(C)[C@@H]4C(=O)O)c3ccc(O)cc3)c(O)c2n1"
experimental_endpoint = "MIC"
units = "µg/mL"
test_result = 1.56

[[record]]
molecule = "CC1(C)S[C@@H]2[C@H](NC(=O)C(C(=O)O)c3ccccc3)C(=O)N2[C@H]1C(=O)O (some centres unmarked) [Carbenicillin, reference compound]"
experimental_endpoint = "MIC"
units = "µg/mL"
test_result = 12.5


(1) CC1(C)S[C@@H]2[C@H](NC(=O)[C@H](NC(=O)c3cnc4ccncc4c3O)c3ccc(O)cc3)C(=O)N2[C@H]1C(=O)O
(2) Cc1nc(C)c2ncc(C(=O)N[C@@H](C(=O)N[C@@H]3C(=O)N4[C@@H]3SC(C)(C)[C@@H]4C(=O)O)c3ccc(O)cc3)c(O)c2n1
(3) CCOC(=O)Oc1ccc([C@@H](NC(=O)c2cnc3scnc3c2O)C(=O)N[C@@H]2C(=O)N3[C@@H]2SC(C)(C)[C@@H]3C(=O)O)cc1
Put these in order: smallest MIC first, largest last. To answer, write out the labels according to the requested order.
2, 3, 1

(1) CCOC(=O)Oc1ccc([C@@H](NC(=O)c2cnc3cc([N+](=O)[O-])ccc3c2O)C(=O)N[C@@H]2C(=O)N3[C@@H]2SC(C)(C)[C@@H]3C(=O)O)cc1
(2) CC1(C)S[C@@H]2[C@H](NC(=O)[C@H](NC(=O)c3cc4ccccc4nc3O)c3ccc(O)cc3)C(=O)N2[C@H]1C(=O)O
(3) CCOC(=O)Oc1ccc([C@@H](NC(=O)c2cnc3ccccc3c2OC(=O)OCC)C(=O)N[C@@H]2C(=O)N3[C@@H]2SC(C)(C)[C@@H]3C(=O)O)cc1
(4) CCOC(=O)Oc1ccc(C(NC(=O)c2cnc3ccc(N(C)C)nc3c2O)C(=O)N[C@@H]2C(=O)N3[C@@H]2SC(C)(C)[C@@H]3C(=O)O)cc1 (mixture of isomers)
Rank by MIC (largest to smallest). To answer, write out the labels according to the requested order.
1, 2, 3, 4
(1: 12.5 µg/mL, 2: 6.25 µg/mL, 3: 3.13 µg/mL, 4: 1.56 µg/mL)

(a) CCOC(=O)Oc1ccc([C@@H](NC(=O)c2cnc3cccnc3c2O)C(=O)N[C@@H]2C(=O)N3[C@@H]2SC(C)(C)[C@@H]3C(=O)O)cc1
(b) CC1(C)S[C@@H]2[C@H](NC(=O)[C@H](NC(=O)c3cnc4ccc(N)nc4c3O)c3ccc(O)cc3)C(=O)N2[C@H]1C(=O)O
(c) CC1(C)S[C@@H]2[C@H](NC(=O)[C@H](NC(=O)c3cnc4ccccc4c3O)c3ccc(O)c(Cl)c3)C(=O)N2[C@H]1C(=O)O
Put these in order: smallest MIC first, largest last. To answer, write out the labels according to the requested order.
b, a, c

(1) CCOC(=O)Oc1ccc([C@@H](NC(=O)c2cnc3ccc(SC)nc3c2O)C(=O)N[C@@H]2C(=O)N3[C@@H]2SC(C)(C)[C@@H]3C(=O)O)cc1
(2) CC1(C)S[C@@H]2[C@H](NC(=O)C(NC(=O)c3cnc4cccnc4c3O)c3ccc(O)cc3)C(=O)N2[C@H]1C(=O)O (mixture of isomers)
(3) CC(C)(C)C(=O)Oc1ccc([C@@H](NC(=O)c2cnc3ccccc3c2O)C(=O)N[C@@H]2C(=O)N3[C@@H]2SC(C)(C)[C@@H]3C(=O)O)cc1
Rank by MIC (largest to smallest). To answer, write out the labels according to the requested order.
3, 2, 1
(3: 6.25 µg/mL, 2: 3.13 µg/mL, 1: 1.56 µg/mL)
